# Test system: A549 lung carcinoma cells
# assayComment: Cell proliferation assay, A549 (CellTiter-Glo, 7 days)
# Format: cell-based
# testSettings: A549, 7 days, CellTiter-Glo 2.0
pEC50: −log10 of the molar value.
This section presents compounds with their documented pEC50 values.

- compound: "C[C@]1(CCc2cc(F)c3cc(Cl)c(N)nc3c2)C[C@@H](n2ccc3c(N)nc(Cl)nc32)[C@H](O)[C@@H]1O"
  pEC50: "> 7.70"
- compound: "C[C@]1(CCc2ccc3cc(Cl)c(N)nc3c2)C[C@@H](n2ccc3c(N)ncnc32)[C@H](O)[C@@H]1O"
  pEC50: "> 7.70"
- compound: "C[C@]1(CCc2ccc3cc(C#N)c(N)nc3c2)C[C@@H](n2ccc3c(N)ncnc32)[C@H](O)[C@@H]1O"
  pEC50: "7.00 to 7.70"
- compound: "C[C@]1(CCc2ccc3cc(Cl)c(N)nc3c2)C[C@@H](n2ccc3c(N)ncnc32)[C@H](O)[C@]1(C)O"
  pEC50: "6.00 to 7.00"
- compound: "C[C@@H]1[C@H](CCc2ccc3ccc(N)nc3c2)[C@@H](O)[C@@H](O)[C@@H]1n1ccc2c(N)ncnc21"
  pEC50: "≤ 6.00"
- compound: "Nc1nc2cc(CC[C@@]34C[C@@H]3[C@@H](n3ccc5c(N)ncnc53)[C@H](O)[C@@H]4O)ccc2cc1Br"
  pEC50: "> 7.70"
- compound: "C=C1[C@@H](n2ccc3c(N)ncnc32)[C@H](O)[C@H](O)[C@H]1CCc1ccc2cc(Br)c(Cl)nc2c1"
  pEC50: "6.00 to 7.00"
- compound: "Cn1c(N)nc2cc(CC[C@@]3(C)C[C@@H](n4ccc5c(N)ncnc54)[C@H](O)[C@@H]3O)ccc2c1=O"
  pEC50: "7.00 to 7.70"
- compound: "C=C1[C@@H](n2ccc3c(N)ncnc32)[C@H](O)[C@H](O)[C@H]1CCc1ccc2cc(Br)c(N)nc2c1"
  pEC50: "> 7.70"
- compound: "C[C@H]1[C@H](CCc2ccc3ccc(N)nc3c2)[C@@H](O)[C@@H](O)[C@@H]1n1ccc2c(N)ncnc21"
  pEC50: "6.00 to 7.00"
- compound: "Nc1ncnc2c1ccn2[C@H]1[C@H](O)[C@H](O)[C@]2(C(O)c3ccc(Cl)c(Cl)c3)C[C@H]12 (single isomer, unassigned) [Compound 8]"
  pEC50: "≤ 6.00"
- compound: "CC(C)C(=O)O[C@H]1[C@H](n2ccc3c(N)ncnc32)C[C@](C)(CCc2ccc3nc(N)ccc3c2)[C@H]1OC(=O)C(C)C"
  pEC50: "≤ 6.00"
- compound: "C[C@]1(CCc2ccc3cc(C(F)F)c(N)nc3c2)C[C@@H](n2ccc3c(N)ncnc32)[C@H](O)[C@@H]1O"
  pEC50: "> 7.70"
